Test: Cellular viability qHTS for adrenocortical cancer (ACC) cell line NCI-H295R (AID 1963990); note: nearly all actives have a fitted effect of over 60% in size
Settings: CellTiter-Glo ATP luminescence, 48 h; series mostly up to 46.1 µM
Inconclusive results are not listed. Activity calls are given as the source filed them. Calls come from the whole dose curve; as a rule, active = well fitted cell-killing curve with a large enough effect; inconclusive = small, poorly fitted or top-dose-only effect; inactive = flat fitted curve, though single readings scatter.
# output must be one of T = active, F = inactive

Which outcome did this test record for the compound CO[C@@]1(NC(=O)C(C(=O)O)c2ccc(O)cc2)C(=O)N2C(C(=O)O)=C(CSc3nnnn3C)CO[C@@H]21 (stereo partly specified) ?
F

Which outcome did this test record for the compound `CC(C)(O)c1cc2nc(-c3cnc(N)nc3)nc(N3CCOCC3)c2s1` ?
T

Which outcome did this test record for the compound `CC[C@@](C)(Nc1ccnc(-c2c[nH]c3ncccc23)n1)C(=O)NCC(F)(F)F` ?
F

Which outcome did this test record for the compound c1ccc(Cn2c(-c3ccc(OCC(C4CCNCC4)n4c(-c5ccccc5)nc5ccccc54)cc3)nc3ccccc32)cc1 (stereo unspecified) ?
T

Which outcome did this test record for the compound `COCCn1c2c([n+](Cc3cnccn3)c1C)C(=O)c1ccccc1C2=O` ?
T

Which outcome did this test record for the compound `CCCc1nc2c(C)cc(-c3nc4ccccc4n3C)cc2n1Cc1ccc(-c2ccccc2C(=O)O)cc1` ?
F

Which outcome did this test record for the compound `CCCCc1ccc(NS(=O)(=O)c2ccc(C)c(C(=O)N3CCN(c4cccc(C)c4C)CC3)c2)cc1` ?
T

Which outcome did this test record for the compound OC(c1cc(C(F)(F)F)nc2c(C(F)(F)F)cccc12)C1CCCCN1 (stereo unspecified) ?
T

Which outcome did this test record for the compound `CCOC(=O)c1cccnc1` ?
F

Which outcome did this test record for the compound `CC[N+](C)(C)c1cccc(O)c1` ?
F

Which outcome did this test record for the compound `O=C1Nc2cc(Cl)ccc2Oc2ccccc21` ?
F

Which outcome did this test record for the compound CNC(=O)Cn1cc(-c2ccc3c(c2)C(F)CC32NC(=O)N(CC(=O)N(Cc3ccc(F)cc3)[C@@H](C)C(F)(F)F)C2=O)cn1 (stereo partly specified) ?
F

Which outcome did this test record for the compound `Cc1ncc(CO)c(C=O)c1O` ?
F

Which outcome did this test record for the compound `Cc1cc(Nc2cc(NC(=O)c3c(Cl)cccc3Cl)ccn2)nc(N)n1` ?
T

Which outcome did this test record for the compound `CC(C)(O)CC(=O)NCCn1ccc2ncnc(Nc3ccc(Oc4cccc(C(F)(F)F)c4)c(Cl)c3)c21` ?
T

Which outcome did this test record for the compound `Clc1cc(Cl)cc(CNc2ncncc2-c2ccc3c(c2)OCO3)c1` ?
T

Which outcome did this test record for the compound CCCCCCCCCCC(CO)CCCCCCCC (stereo unspecified) ?
F

Which outcome did this test record for the compound `CCc1c(-c2ccccc2C)nc2c(C#N)c[nH]n2c1=O` ?
F

Which outcome did this test record for the compound `O=c1c(O)c(-c2ccc(O)c(O)c2)oc2cc(O)cc(O)c12` ?
F

Which outcome did this test record for the compound `COc1ccccc1N1CCN(CCCCNC(=O)c2ccc(-c3ccc(C(C)=O)cc3)cc2)CC1` ?
F

Which outcome did this test record for the compound `CC(C)c1ccc(Cn2ccc3c4c(N)nc(NC5CC5)nc4ccc32)cc1` ?
T

Which outcome did this test record for the compound Cc1cc(C)c2c(c1)[C@@H](N(Cc1cc(C(F)(F)F)cc(C(F)(F)F)c1)c1nnn(C)n1)CCCN2CC1CCC(C(=O)O)CC1 (stereo partly specified) ?
F

Which outcome did this test record for the compound `CO[C@H]1C(=O)[C@]2(C)[C@@H](OC)C[C@H]3OC[C@@]3(OC(C)=O)[C@H]2[C@H](OC(=O)c2ccccc2)[C@]2(O)C[C@H](OC(=O)[C@H](O)[C@@H](NC(=O)OC(C)(C)C)c3ccccc3)C(C)=C1C2(C)C` ?
T

Which outcome did this test record for the compound `C[N+](C)(C)CCOC(N)=O` ?
F

Which outcome did this test record for the compound `CCCn1cnc2c1c(=O)n(CCCCC(C)=O)c(=O)n2C` ?
F

Which outcome did this test record for the compound `C=CC(=O)N1CCc2ccc(-n3c(=O)ccc4cnc5ccc(-c6cnn(C)c6)cc5c43)cc21` ?
T

Which outcome did this test record for the compound `COc1cc(C(=O)NC2CCN(C)CC2)ccc1Nc1ncc2c(n1)N(C1CCCC1)CCC(=O)N2C(C)C` ?
T

Which outcome did this test record for the compound `OC[C@@H](O)[C@@H](O)[C@H](O)[C@@H](O)CO` ?
F

Which outcome did this test record for the compound `O=C(O)Cn1c(=O)n(Cc2ccc(Br)cc2F)c(=O)c2ccc(Cl)cc21` ?
F

Which outcome did this test record for the compound `Cn1cc(-c2ccc(S(=O)(=O)n3ccc(/C=C/C(=O)Nc4ccccc4N)c3)cc2)cn1` ?
T

Which outcome did this test record for the compound `CC1(C)CC[C@]2(C(=O)O)CC[C@]3(C)C(=CC[C@@H]4[C@@]5(C)C[C@@H](O)[C@H](O)C(C)(C)[C@@H]5CC[C@]43C)[C@@H]2C1` ?
F
